test system: SN12C renal; assay: NCI-60 one-dose screen, 48 h (100 = growth as untreated, 0 = no growth, -100 = all killed); conditions: 10 µM unless noted
Compounds without any hit were thinned out: in the full panel of roughly 83,000, 20% have a hit.
Examples of molecules with documented growth follow.
Give a bare numeral; the unit % is implied.

# Molecule, Reading
records = [
    ("CCn1c(SCC(=O)Nc2cccc(C(=O)/C=C/c3ccccc3Cl)c2)nc2ccccc2c1=O", 88.4),
    ("CC1(C)NCCC[C@]2(C)[C@H]3C/C(=N\\O)C4[C@@H]5C[C@@](C)(CO)CC[C@]5(C)CC[C@@]4(C)[C@]3(C)CC[C@@H]12 (some centres undefined)", 94.1),
    ("Cc1cc(C)c2sc(=O)n(Cc3nnc(SCCC(=O)O)o3)c2n1", 97.8),
    ("O=C(c1ccc(O)cc1)[C@@H]1CN[C@@]2(C(=O)Nc3ccccc32)[C@H]1c1ccc(F)cc1", 98.6),
    ("CS(=O)(=O)c1ccc(-n2cc(/C=N/O)c(-c3ccccc3)n2)cc1", 89.5),
]

For Cc1[nH]c(C(=O)Nc2ccccc2OCc2cccc(C(=O)N3CCC[C@@H](N)C3)c2)c(Cl)c1Cl , what is its reported growth?
-79.4

For COc1ccc(/C=N/NC(=O)c2cn(C3CC3)c3c(OC)c(N4CC5CCCNC5C4)c(F)cc3c2=O)cc1 (centres undefined) , what is its reported growth?
81

For O=C(CNc1nc(-c2cccc([N+](=O)[O-])c2)cs1)Nc1cccc(Cl)c1 , what is its reported growth?
99.4

For CCN(CC)c1ccc2c(c1)Oc1nc(N)c(C#N)c(N)c1C2Sc1ccc(C)cc1 (centres undefined) , what is its reported growth?
-69.7

----------
test system: RPMI-8226 leukemia; test: NCI-60 one-dose screen, 48 h; settings: 10 µM unless noted
This is part of a sample that, as a whole, favours compounds with a hit. Of some 83,000 tested, about 20% had one in any assay. The source made the active and inactive calls. Rule for the calls: active = growth percent below 10; inactive = the rest.
Classes to choose from: 1 (yes) for active, 0 (no) for inactive

Look over these answered cases.
# Molecule, Study system, Assigned category
rows = [
    ("CS(=O)(=O)c1ccc(-c2nn(-c3ccccc3)cc2/C=N/NC(=O)c2nc(N)n[nH]2)cc1", "RPMI-8226 leukemia", "0 (no)"),
    ("CCCCCc1ccc(S(=O)(=O)Nc2cc(-c3csc(NC(=O)CN4CCN(CCO)CC4)n3)ccc2OC)cc1", "RPMI-8226 leukemia", "1 (yes)"),
    ("COc1ccccc1NCc1cccn1Cc1ccc(F)cc1", "RPMI-8226 leukemia", "0 (no)"),
    ("COc1ccc(S(=O)(=O)NCCCNc2nccc(-c3[nH]c(-c4ccccc4)nc3-c3ccc(Cl)c(O)c3)n2)cc1", "RPMI-8226 leukemia", "0 (no)"),
    ("NC(N)=Nc1ccc(Oc2cccc(NC(N)=Nc3ccc(Cl)c(C(F)(F)F)c3)c2)cn1", "RPMI-8226 leukemia", "0 (no)"),
]

For Cn1cc(-c2cc(N)n3nc(-c4cn(C)c5ccccc45)cc3n2)c2ccccc21 , which call appears in the assay record?
0 (no)

For COc1ccc2[nH]cc(/C=N/Nc3nc4ccccc4s3)c2c1 , which call appears in the assay record?
0 (no)

For O=C1CCC(N2C(=O)c3ccc(NS(=O)(=O)c4ccccc4OC(F)(F)F)cc3C2=O)C(=O)N1 (stereo not given) , which call appears in the assay record?
0 (no)

For NC(N)=Nc1ccc(Oc2ccc(Nc3ccc(Cl)c(C(F)(F)F)c3)cc2)cc1 , which call appears in the assay record?
0 (no)

----------
tested on: MCF7 breast; assay: NCI-60 one-dose screen, 48 h; settings: 10 µM unless noted
This is part of a sample that, as a whole, favours compounds with a hit. Of some 83,000 tested, about 20% had one in any assay. Active and inactive are the calls of the source. Rule for the calls: active = growth percent below 10; inactive = the rest.
Classes to choose from: active, inactive

# Compound, Assigned category
records = [
    ("CC(=O)Nc1cccc(Nc2nc(N[C@H](C)c3ccccc3)c3ccccc3n2)c1", "inactive"),
    ("Cc1ccc(NC(=S)NNC(=S)Nc2ccc(C)cc2)cc1", "inactive"),
    ("CCOC(=O)C(=O)CC(=O)N1C(=S)NC(=O)C1CC(C)C (centres undefined)", "inactive"),
    ("O=C(Nc1cccc(C(F)(F)F)c1)c1cc(-c2ccc(F)cc2F)ccc1O", "active"),
    ("CCNC(=O)N1CCc2cc(OC)c(OCCc3ccc(OC)cc3)cc2C1c1ccc(OC)cc1C (centres undefined)", "inactive"),
]

For CC(O)c1cc2ccccc2c(=O)o1 (centres undefined) , which call appears in the assay record?
inactive

For CCC(CC)N1C(=O)/C(=c2\sc3n(c2=O)NC2C(N=3)N(CC)C(=O)N2CC)c2ccccc21 (centres undefined) , which call appears in the assay record?
inactive

For CS(=O)(=O)c1ccc(-n2cc(/C=N/O)c(-c3ccccc3)n2)cc1 , which call appears in the assay record?
inactive

For O=C(CN1CCN(c2cc(=O)n(-c3ccccc3)c3ccccc23)CC1)Nc1ccc(F)cc1 , which call appears in the assay record?
inactive

For COc1ccc2[nH]cc(-c3csc4nc(-c5ccccc5)cn34)c2c1 , which call appears in the assay record?
inactive

----------
system: SNB-19 CNS; experiment: NCI-60 one-dose screen, 48 h (100 = growth as untreated, 0 = no growth, -100 = all killed); conditions: 10 µM unless noted
Compounds without any hit were thinned out: in the full panel of roughly 83,000, 20% have a hit.
Assay readout: growth (%)
Give a bare numeral; the unit % is implied.

Examples with answers:
# Molecule, Reading
rows = [
    ("COc1ccc(OC)c(-c2nc(SCC(=O)c3ccc(Br)cc3)nc(Nc3ccc(S(N)(=O)=O)cc3)c2C#N)c1", 49.9),
    ("CC[C@]12C=CCN3CC[C@@]4(c5cc(NC(=O)COc6cc(O)c7c(=O)cc(-c8ccccc8)oc7c6)c(OC)cc5N(C)[C@H]4[C@@](O)(C(=O)OC)[C@@H]1OC(C)=O)[C@@H]32", -54.3),
    ("CC(C)(C)c1ccc(C(=O)Nc2sc3c(c2C(N)=O)CCC(O)C3)cc1 (centres undefined)", 64.9),
]

For CS(=O)(=O)Nc1cc(-c2ccc3ncc(C#N)c(NCc4ccccc4F)c3c2)cnc1Cl , what is its reported growth?
12.8

For COc1cc(-c2nc3sccn3c2-c2ccnc(S(C)(=O)=O)n2)ccc1F , what is its reported growth?
92

For CC(=O)c1cc(C(=O)N2c3ccccc3Sc3ccccc32)n2ccc3ccccc3c12 , what is its reported growth?
49.1

For CC(=O)c1ccc(Nc2nc(SCC(C)C)nc(-c3ccc(F)cc3)c2C#N)cc1 , what is its reported growth?
112

For COc1ccc2c(c1)Oc1nc(N)c(C#N)c(N)c1C2Sc1ccc(C)cc1 (centres undefined) , what is its reported growth?
7.65

----------
tested on: CCRF-CEM leukemia; experiment: NCI-60 one-dose screen, 48 h (100 = growth as untreated, 0 = no growth, -100 = all killed); settings: 10 µM unless noted
The panel holds about 83,000 compounds, 20% with a hit somewhere; the sample as a whole holds those more often.
Examples of compounds with documented growth follow.
Give a bare numeral; the unit % is implied.

Examples with answers:
# Compound, growth (%)
data = [
    ("C=C(C=O)[C@@H]1CC[C@]2(COC(C)=O)CC[C@]3(C)C(CC[C@@H]4[C@@]5(C)CC[C@H](OC(C)=O)C(C)(C)[C@@H]5CC[C@]43C)[C@@H]12 (stereo partly drawn)", 10.9),
    ("COc1ccc(CCOc2cc3c(cc2OC)CCN(C(=O)NCc2cocn2)C3c2ccc(C)cc2C)cc1 (stereo not drawn)", 26.4),
    ("Cc1cc(C)cc(C(=O)Nc2cccc(C#Cc3cccc4[nH]nc(N)c34)c2)c1", 30.5),
    ("CN1CCN(Cc2ccc(NC(=O)c3cncc(C#Cc4cnc5ccc(OCC(C)(C)O)nn45)c3)cc2C(F)(F)F)CC1", 6.09),
    ("C#Cc1nc(C(=O)NCCC(=O)Nc2ccc(NC(=O)c3ccc(/C=C/C(=O)c4nccn4C)cc3)cc2)cs1", -21.2),
]

For O=C(NNc1nc2cc(F)c(F)cc2n2cccc12)c1cnccn1 , what is its reported growth?
14.4

For O=C1[C@H]2Cc3c([nH]c4ccccc34)[C@@H](c3ccc(Cl)cc3)N2C(=O)CN1C1CCN(Cc2ccccc2)CC1 , what is its reported growth?
43.3

For Cc1cccc2c3c(sc12)C(c1ccc(F)cc1)C(C#N)=C(/N=C/c1ccc(Cl)cc1)O3 (stereo not drawn) , what is its reported growth?
13.5

----------
test system: SNB-19 CNS; test: NCI-60 one-dose screen, 48 h (100 = growth as untreated, 0 = no growth, -100 = all killed); details: 10 µM unless noted
About 83,000 compounds went through this panel and 20% of them were active in at least one assay; those are over-represented in the sample as a whole.
Examples of compounds with documented growth follow.
Give a bare numeral; the unit % is implied.

Examples with answers:
# Compound, Study system, growth / %
rows = [
    ("O=C(O)c1ccc(-n2cc(CNc3cc(F)c(F)c(F)c3)c(-c3ccc(F)cc3)n2)cc1", "SNB-19 CNS", 95.3),
    ("Oc1[nH]c2ccccc2c1Nn1c(N=N/C=c2/ccc3c(c2)C=NN=3)n[nH]c1=S", "SNB-19 CNS", 98.9),
    ("CN1CCC(n2cc(Nc3ncc4c(=O)n(-c5c(Cl)cccc5Cl)cc(Br)c4n3)cn2)CC1", "SNB-19 CNS", 41.7),
    ("C=C(C=O)[C@@H]1CC[C@]2(C)[C@H](C(=O)C=C3[C@H]4C[C@](C)(C(=O)OC)CC[C@]4(C)CC[C@]32C)[C@@]1(C)CCC#N", "SNB-19 CNS", 30.7),
    ("Cc1ccc(-c2nnc(SCc3ccc(O)c4ncccc34)o2)cc1", "SNB-19 CNS", 11.1),
    ("O=C1CC(=O)N2CSCN(C(c3ccccc3)c3nc4ncncc4[nH]3)C2=N1 (stereo not drawn)", "SNB-19 CNS", 93.8),
    ("CCCCCc1ccc(S(=O)(=O)Nc2cccc(-c3csc(NCCN4CCN(C)CC4)n3)c2)cc1", "SNB-19 CNS", 79.9),
    ("O=S(=O)(Nc1ccc2c(c1)OCO2)c1ccc(-c2cnc(C3CC3)o2)cc1", "SNB-19 CNS", 38.1),
]

For COc1ccc(-n2c(/C=C3\C(=O)Nc4ccccc43)ccc2CO)cc1 , what is its reported growth?
90
